system: Staphylococcus epidermitis; assay: Bacterial growth inhibition screen in LB media (absorbance 595 nm), percent inhibition; conditions: S. epidermitis; concentration screened 10 uM
observable: % Inhibition (%)
Give bare numbers, in %.

Worked examples follow.
• O=C(OCCCCCCCc1cc2cc(Oc3ccccc3)ccc2[nH]1)C(c1ccccc1)c1ccccc1 = 1.43
• COC(=O)c1ccc[n+](CCCCn2ccc3cc([N+](=O)[O-])ccc32)c1 = 31.80
• O=C(O)c1ccc2[nH]c(CCC[n+]3cccc4ccccc43)cc2c1 = 11.00
• COc1ccc2c(ccn2CCCCOC(=O)c2cc3ccccc3[n+](C)c2)c1 = 65.74
• O=C(OCCCCCCCCc1cc2cc(Oc3ccccc3)ccc2[nH]1)c1cccnc1 [Compound 686] = 22.14

Parameter requested: % Inhibition. Apply to each item below.
1. c1ccc2[nH]c(CCC[n+]3cccc4ccccc43)cc2c1
2. Fc1cc(F)c2[nH]c(CCC[n+]3ccccc3)cc2c1

1: 5.92; 2: 6.20

Please state, for each entry, its recorded % Inhibition.
1. O=C(OCCCn1ccc2cc([N+](=O)[O-])ccc21)c1cccnc1
2. c1ccc(Oc2ccc3[nH]c(CCC[n+]4cccc5ccccc54)cc3c2)cc1

49.58
3.69

====

system: Staphylococcus epidermitis; assay: Bacterial growth inhibition screen in LB media (absorbance 595 nm), percent inhibition; conditions: S. epidermitis; concentration screened 10 uM
observable: % Inhibition (%)
Give bare numbers, in %.

* O=C(OCCCCCCCc1cc2cc(C(=O)c3ccccc3)ccc2[nH]1)c1ccncc1 [Compound 709] | 12.94
* CC(C)c1ccc2[nH]c(CCCCCCCCOC(=O)c3ccncc3)cc2c1 [Compound 704] | 19.07
* COc1ccc2c(ccn2CCCCCCOC(=O)Cc2ccc([N+](C)(C)C)cc2)c1 [Compound 742] | 2.13

Go through the list and state % Inhibition for each entry.
1. c1ccc(C(c2ccccc2)(c2ccccc2)c2ccc3[nH]c(CCC[n+]4ccc5ccccc5c4)cc3c2)cc1 [Compound 552]
2. CC(C)c1ccc2[nH]c(CCCCCCC[n+]3ccc4ccccc4c3)cc2c1 [Compound 538]
3. CN(C)c1cccc(C(=O)OCCCCCCn2ccc3cc([N+](=O)[O-])ccc32)c1 [Compound 838]

1: 50.00; 2: 43.05; 3: 17.65

Go through the items and report each one's % Inhibition.
1. O=C(c1ccccc1)c1ccc2[nH]c(CCCCCC[n+]3cccc4ccccc43)cc2c1 [Compound 465]
2. O=C(O)c1ccc2[nH]c(CCCCCC[n+]3ccc4ccccc4c3)cc2c1 [Compound 603]

1: 8.08; 2: 1.60

====

Molecular target: bacterial NAD synthetase enzyme (Bacillus subtilis, UniProt P08164)
Sequence (P08164 2-272 limits assumed): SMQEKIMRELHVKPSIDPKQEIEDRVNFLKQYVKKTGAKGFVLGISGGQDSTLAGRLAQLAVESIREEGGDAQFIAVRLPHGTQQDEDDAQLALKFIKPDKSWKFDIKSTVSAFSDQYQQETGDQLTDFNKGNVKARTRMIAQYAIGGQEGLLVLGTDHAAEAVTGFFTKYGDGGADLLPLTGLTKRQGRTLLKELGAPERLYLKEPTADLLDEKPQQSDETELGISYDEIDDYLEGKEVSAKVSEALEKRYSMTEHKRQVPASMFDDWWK
Test: biochemical
Format: biochemical
Conditions: compound at 0.2 mM (Table 312A)
# % Inhibition >= 9% gives Yes, anything below gives No

Given `CC(=O)c1ccc2[nH]c(CCCCCC[n+]3cccc4ccccc43)cc2c1` , state whether its % Inhibition is at least 9%. Yes

Tell me whether % Inhibition is at least 9% here: `c1ccc2c[n+](CCCCCCCCc3cc4ccccc4[nH]3)ccc2c1` Yes

Confirm if % Inhibition reported for the compound `COC(=O)c1ccc[n+](CCCCn2ccc3cc([N+](=O)[O-])ccc32)c1` is 9% or above. Yes

Entry `CN(C)c1ccc(C(=O)OCCCCCCCCc2cc3cc(C(F)(F)F)ccc3[nH]2)cc1` : is its % Inhibition no less than 9%? Yes
